Target: T1, human C16orf54 (human, UniProt Q6UWD8 1-224)
T1 construct: also called huC16orf54; hC16orf54
T1 sequence: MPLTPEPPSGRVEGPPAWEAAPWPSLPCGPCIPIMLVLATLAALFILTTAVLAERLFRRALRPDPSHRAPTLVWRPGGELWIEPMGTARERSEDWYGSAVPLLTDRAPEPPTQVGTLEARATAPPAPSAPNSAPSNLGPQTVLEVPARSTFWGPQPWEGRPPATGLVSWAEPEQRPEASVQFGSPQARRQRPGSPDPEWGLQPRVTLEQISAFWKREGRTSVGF
Assay: flow cytometry, 10 ug/ml antibody, D42M1-huC16orf54 cells
PARAMETER: Median fold change relative to IgG control (fold)
Report only the number, with the unit fold understood.

# lookup: Median fold change relative to IgG control of R29-8-58C (antibody, V domains shown, Murine monoclonal antibody from a hybridoma) VH: EVKLVESGGGLVKPGGSLKFSCAASGFTFSSYAVSWVRQTPEKRLEWVASITSGGRSYYPDSVKGRFTISRDNARSMLYLHMSSLRSEDTAMYYCTRGWDENDLWGQGTTLTVSS VL: DVVMTQTPLSLFVSLGDQASISCRSSQSLLYSNGNTYLHWYLQRPGQSPQLLIYKVSNRFSGVPDRFSGSGSGTDFTLKISRVEAEDLGVYFCSQTTHVPWTFGGGTKLEIK
184
